Reported values of Binding Affinity to Mouse MHC Class I (% increase of D^b or K^b on RMA-S cells) for individual entries
Molecular target: mouse B6 class I antigens (D^b or K^b molecules on the surface of RMA-S cells) (mouse, UniProt P01887 21-119)
Sequence (P01887 21-119): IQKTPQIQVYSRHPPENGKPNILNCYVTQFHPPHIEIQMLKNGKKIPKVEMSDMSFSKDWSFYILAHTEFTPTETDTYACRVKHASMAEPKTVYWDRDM
Experiment: RMA-S cells incubated with peptide (25 ug/ml), stained with FITC anti-D^b or anti-K^b, flow cytometry
Provide only the numeric value, understood in %.

Worked examples follow.
| binder | valueReported |
| --- | --- |
| ALLPAVPSL (also called human p10-18) [WT1 peptide p10-18 human (ALLPAVPSL)] | 2.2 |
| QMTSQLECM [WT1 peptide p228-236 (QMTSQLECM)] | 1.2 |

# input Please give the measured Binding Affinity to Mouse MHC Class I (% increase of D^b or K^b on RMA-S cells) for this binder: NLYQMTSQL [WT1 peptide p225-233 (NLYQMTSQL)]
# output 5.8

# input Then what about the binder NQMNLGATL [WT1 peptide p239-247 (NQMNLGATL)] ?
# output 1

# input Then what about the binder GCNKRYFKL [WT1 peptide p329-337 (GCNKRYFKL)] ?
# output 1.2
